Target or system: PD-1/PD-L1 interaction (Homo sapiens, UniProt Q9NZQ7)
Construct: expressed in transfected cells; host or cells: CHO cells (aAPC-PD-L1) co-cultured with Jurkat cells overexpressing PD-1 and an NFAT-luciferase reporter
Sequence (Q9NZQ7 19-290): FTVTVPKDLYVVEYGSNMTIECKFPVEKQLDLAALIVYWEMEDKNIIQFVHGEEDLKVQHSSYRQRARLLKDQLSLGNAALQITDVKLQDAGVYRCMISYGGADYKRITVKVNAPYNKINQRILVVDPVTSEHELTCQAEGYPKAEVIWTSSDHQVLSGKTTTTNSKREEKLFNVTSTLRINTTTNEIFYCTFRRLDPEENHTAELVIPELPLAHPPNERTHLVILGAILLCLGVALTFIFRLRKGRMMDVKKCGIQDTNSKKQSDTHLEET
Measurement notes: PD-1/PD-L1 NFAT reporter co-culture assay
Type: cell-based
Experimental context: Jurkat PD-1 NFAT-luciferase cells co-cultured with aAPC-PD-L1 CHO cells, 6 hrs at 37° C.; read-out: EC50 NFAT Luciferase
pEC50: −log10 of the molar value.
Quantity measured: pEC50

P = Cc1c(COc2cc(OCc3cncc(C#N)c3)c(CN[C@H]3CCCC[C@@H]3O)cc2Cl)cccc1-c1cccc(-c2cccc(OCCNCCO)c2)c1C
Q = COc1nc(-c2cccc(-c3cccc(-c4cnc5c(CNC[C@H]6CCC(=O)N6)cn(C)c5c4)c3Cl)c2Cl)ccc1CNC[C@H]1CCC(=O)N1
## Input Looking only at measured pEC50, which entry is lower, P or Q ? Respond with the label that goes with your answer.
## Output P
(P: 6.42, Q: 6.62)

###

Target or system: PD-1/PD-L1 interaction (Homo sapiens, UniProt Q9NZQ7)
Construct: expressed in transfected cells; host or cells: CHO cells (aAPC-PD-L1) co-cultured with Jurkat cells overexpressing PD-1 and an NFAT-luciferase reporter
Measurement notes: PD-1/PD-L1 NFAT reporter co-culture assay
Assay type: cell-based
Experimental context: Jurkat PD-1 NFAT-luciferase cells co-cultured with aAPC-PD-L1 CHO cells, 6 hrs at 37° C.; read-out: EC50 NFAT Luciferase
Quantity measured: EC50 (nM)

Solved cases (5 shown):
Smiles representation: Cc1c(COc2cc(OCc3cncc(C#N)c3)c(CNC[C@@H](O)CC(=O)O)cc2Cl)cccc1-c1cccc(-c2ccc3c(c2)c(C)nn3CCNC[C@@H](O)CC(=O)O)c1C
Units text: nM
Assay result: 142

Smiles representation: Cc1c(COc2cc(OCc3cncc(C#N)c3)c(CNCC[C@H](O)C(=O)O)cc2Cl)cccc1-c1cccc(COc2cc(OCc3cncc(C#N)c3)c(CNCC[C@H](O)C(=O)O)cc2Cl)c1C
Units text: nM
Assay result: 413

Smiles representation: Cc1c(COc2cc(OCc3cncc(C#N)c3)c(CN[C@@](C)(CO)C(=O)O)cc2Cl)cccc1-c1cccc(-c2ccc(OCCN[C@@](C)(CO)C(=O)O)cc2)c1C
Units text: nM
Assay result: 152

Smiles representation: CS(=O)(=O)c1cncc(COc2nc(O[C@H]3CCc4c(-c5cccc(-c6ccc(OCCN7CC[C@@H](O)C7)cc6)c5Cl)cccc43)c(Cl)cc2CNC[C@@H](O)CC(=O)O)c1
Units text: nM
Assay result: 418

Smiles representation: Cc1c(COc2cc(OCc3cncc(C#N)c3)c(CNC[C@@H](O)CC(=O)O)cc2Cl)cccc1-c1cccc(-c2cn3cc(CNC[C@@H](O)CC(=O)O)ccc3n2)c1C
Units text: nM
Assay result: 435

1 = COc1nc(-c2cccc(-c3cccc4c3CC[C@@H]4Oc3nc(OC)c(CNC[C@@H]4CCC(=O)N4)cc3Cl)c2Cl)ccc1CNC[C@@H]1CCC(=O)N1
2 = COc1nc(O[C@H]2CCc3c(-c4cccc5c4CC[C@@H]5Oc4nc(OC)c(CNCC(=O)O)cc4Cl)cccc32)c(Cl)cc1CNCC(=O)O
3 = COc1nc(O[C@H]2CCc3c(-c4cccc(-c5cnc(CN6CC7(C6)CN(C(C)=O)C7)c(OC)n5)c4Cl)cccc32)c(Cl)cc1CN1CC[C@@H](C(=O)O)C1
## Input I would appreciate it if you could sort these 3 compounds by EC50, starting from the smallest number. Reply with the item labels sorted in the order that was asked for.
## Output 1, 3, 2
(1: 36 nM, 3: 57 nM, 2: 456 nM)

1 = Cc1c(COc2cc(OCc3cncc(C#N)c3)c(CN[C@](C)(CO)C(=O)O)cc2Cl)cccc1-c1cccc(-c2ccc(OCCNCCO)c(S(C)(=O)=O)c2)c1C
2 = Cc1c(COc2cc(OCc3cncc(C#N)c3)c(CN[C@@](C)(CO)C(=O)O)cc2Cl)cccc1-c1cccc(-c2ccc(OCCNCCO)c(C(=O)NC3CC3)c2)c1C
## Input For the two items 1 and 2 , which reports the higher EC50 value? Respond with the label that goes with your answer.
## Output 2

P = Cc1c(COc2cc(OCc3cncc(C(N)=O)c3)c(CN[C@@](C)(CO)C(=O)O)cc2Cl)cccc1-c1cccc(-c2ccc3c(c2)[C@@H](O)C[C@H]3N)c1C
Q = Cc1c(COc2cc(OCc3cncc(C#N)c3)c(CN[C@@](C)(CO)C(=O)O)cc2Cl)cccc1-c1cccc(-c2ccc(OCCc3cccnc3)c(CNCCO)c2)c1C
## Input Looking only at measured EC50, which entry is lower, P or Q ? Respond with the label that goes with your answer.
## Output P
(P: 217 nM, Q: 353 nM)

a = Cc1c(COc2cc(OCc3cncc(C#N)c3)c(CNC[C@@H](O)CC(=O)O)cc2Cl)cccc1-c1cccc(OCc2ccc(CNC[C@@H](O)CC(=O)O)cc2)c1C
b = COc1nc(OCc2cccc(-c3cccc(COc4ccc(CN[C@H](CO)C(=O)O)c(OC)n4)c3C)c2C)ccc1CN[C@H](CO)C(=O)O
## Input For the two items a and b , which reports the higher EC50 value? Respond with the label that goes with your answer.
## Output b
(b: 13100 nM, a: 260 nM)

FYI, the data here is from patent US12590062B2.
